Measured on: Mushroom tyrosinase (Agaricus bisporus, UniProt O42713+Q00024+C7FF04+C7FF05)
Assay comment: Inhibition of mushroom tyrosinase
Assay type: protein assay
Listed below: log10 of IC50 values for each entry.
Kindly note that the scale is log10 and the underlying IC50 is in µM.

## Input Mushroom tyrosinase (Agaricus bisporus, UniProt O42713+Q00024+C7FF04+C7FF05) / log10 of IC50 / "COc1ccc2c(c1)CC/C(=C\c1ccc(OCc3cn(Cc4ccccc4F)nn3)c(OC)c1)C2=O" : value?
## Output 1.83

## Input Then this compound: "COc1ccccc1-n1c(SCC(=O)Nc2ccccc2)nnc1-c1ccccc1"
## Output -1.62

## Input Then this compound: "O=C1N=C(Nc2ccncc2)S/C1=C\c1ccccc1OCc1cn(Cc2ccc(Cl)c(Cl)c2)nn1"
## Output 0.77

## Input Then this compound: "Cc1ccc2nc(-c3ccc(OCc4cn(Cc5ccccc5)nn4)cc3)[nH]c2c1"
## Output 1.64

----------
Measured on: Mushroom tyrosinase (Agaricus bisporus, UniProt O42713+Q00024+C7FF04+C7FF05)
Assay comment: Inhibition of mushroom tyrosinase using L-DOPA as substrate preincubated for 10 mins
Type: protein assay
Endpoint: IC50 (nM)
# output: bare number, implied unit nM

Check out these entries, answers already filled in.
CCCCCn1nc(-c2ccccc2)n(CC(=O)NNC(=O)Nc2ccc(Cl)cc2Cl)c1=O : 1
Nn1c(SCc2cc(=O)c(O)co2)nnc1-c1ccccc1Cl : 5350
Cc1ccc(-c2nnc(SCc3cc(=O)c(O)co3)n2N)cc1 : 6250

## Input // returns reported IC50 for input "O=C(CSc1nnc(-c2ccccc2)n1-c1ccc(F)cc1)Nc1ccc(Br)cc1"
## Output 142

## Input Then this molecule: "O=C(CSc1nnc(-c2ccccc2F)n1-c1ccc(F)cc1)Nc1ccccc1"
## Output 110

## Input Then this molecule: "Nn1c(SCc2cc(=O)c(O)co2)nnc1-c1ccccc1Br"
## Output 5980

## Input Then this molecule: "O=c1cc(O)oc(CSc2nnc(-c3ccccc3Cl)n2/N=C/c2ccc(O)c(O)c2)c1"
## Output 5200

## Input Then this molecule: "O=C(CSc1nnc(-c2ccccc2F)n1-c1ccc(F)cc1)Nc1ccc(F)cc1"
## Output 98

## Input Then this molecule: "Nn1c(SCc2cc(=O)c(O)co2)nnc1-c1ccc(Cl)cc1"
## Output 4500

## Input Then this molecule: "O=C(CSc1nnc(-c2ccc(F)cc2)n1-c1ccc(F)cc1)Nc1ccccc1"
## Output 124

----------
Measured on: Mushroom tyrosinase (Agaricus bisporus, UniProt O42713+Q00024+C7FF04+C7FF05)
Assay comment: Inhibition of mushroom tyrosinase using L-DOPA as substrate preincubated for 10 mins followed by substrate addition and measured after 15 mins by spectrophotometric method
Format: protein assay
Endpoint: IC50 (nM)
# output: bare number, implied unit nM

Check out these entries, answers already filled in.
CCc1ccc(CNC(=O)CSc2nnc(Cc3csc(N)n3)n2-c2ccccc2)cc1 : 122
Nc1nc(Cc2nnc(SCC(=O)NCCc3ccccc3)n2-c2ccccc2)cs1 : 10
Cc1ccccc1CNC(=O)CSc1nnc(Cc2csc(N)n2)n1-c1ccccc1 : 15
Cc1ccc(CNC(=O)CSc2nnc(Cc3csc(N)n3)n2-c2ccccc2)cc1C : 113
Cc1cc(C)cc(CNC(=O)CSc2nnc(Cc3csc(N)n3)n2-c2ccccc2)c1 : 240

## Input // returns reported IC50 for input "Cc1cccc(CNC(=O)CSc2nnc(Cc3csc(N)n3)n2-c2ccccc2)c1C"
## Output 2010

## Input Then this molecule: "Cc1cccc(C)c1CNC(=O)CSc1nnc(Cc2csc(N)n2)n1-c1ccccc1"
## Output 50
